target: VEGFR-2 (Homo sapiens); experiment: ADP-Glo kinase inhibition assay, VEGFR-2; format: biochemical; settings: Table 2, ATP 50 μM, read-out: VEGFR-2 inhibitory activity (IC50)
pIC50: −log10 of the molar value.
parameterMeasured: pIC50

Solved entries:
# molecule, measuredValue
rows = [
    ("Cc1ccc(NC(=O)Nc2ccc(-c3cccc(NC(=O)C4CC4)n3)cc2)cc1Cl [CDAU-13]", "< 6.00"),
    ("O=C(Nc1ccc(-c2cccc(NC(=O)C3CC3)n2)cc1)Nc1cccc(F)c1 [CDAU-24]", "< 6.00"),
]

Entry O=C(Nc1ccc(-c2cccc(NC(=O)C3CC3)n2)cc1)Nc1cccc(C(F)(F)F)c1 [CDAU-21] — recorded pIC50 = 8.20

* * *

target: VEGFR-2 (Homo sapiens, UniProt P35968); assay: ADP-Glo kinase inhibition assay, VEGFR-2; type: biochemical; conditions: Table 1, ATP 50 μM, read-out: VEGFR-2 inhibitory activity (IC50)
Sequence (P35968 20-1356): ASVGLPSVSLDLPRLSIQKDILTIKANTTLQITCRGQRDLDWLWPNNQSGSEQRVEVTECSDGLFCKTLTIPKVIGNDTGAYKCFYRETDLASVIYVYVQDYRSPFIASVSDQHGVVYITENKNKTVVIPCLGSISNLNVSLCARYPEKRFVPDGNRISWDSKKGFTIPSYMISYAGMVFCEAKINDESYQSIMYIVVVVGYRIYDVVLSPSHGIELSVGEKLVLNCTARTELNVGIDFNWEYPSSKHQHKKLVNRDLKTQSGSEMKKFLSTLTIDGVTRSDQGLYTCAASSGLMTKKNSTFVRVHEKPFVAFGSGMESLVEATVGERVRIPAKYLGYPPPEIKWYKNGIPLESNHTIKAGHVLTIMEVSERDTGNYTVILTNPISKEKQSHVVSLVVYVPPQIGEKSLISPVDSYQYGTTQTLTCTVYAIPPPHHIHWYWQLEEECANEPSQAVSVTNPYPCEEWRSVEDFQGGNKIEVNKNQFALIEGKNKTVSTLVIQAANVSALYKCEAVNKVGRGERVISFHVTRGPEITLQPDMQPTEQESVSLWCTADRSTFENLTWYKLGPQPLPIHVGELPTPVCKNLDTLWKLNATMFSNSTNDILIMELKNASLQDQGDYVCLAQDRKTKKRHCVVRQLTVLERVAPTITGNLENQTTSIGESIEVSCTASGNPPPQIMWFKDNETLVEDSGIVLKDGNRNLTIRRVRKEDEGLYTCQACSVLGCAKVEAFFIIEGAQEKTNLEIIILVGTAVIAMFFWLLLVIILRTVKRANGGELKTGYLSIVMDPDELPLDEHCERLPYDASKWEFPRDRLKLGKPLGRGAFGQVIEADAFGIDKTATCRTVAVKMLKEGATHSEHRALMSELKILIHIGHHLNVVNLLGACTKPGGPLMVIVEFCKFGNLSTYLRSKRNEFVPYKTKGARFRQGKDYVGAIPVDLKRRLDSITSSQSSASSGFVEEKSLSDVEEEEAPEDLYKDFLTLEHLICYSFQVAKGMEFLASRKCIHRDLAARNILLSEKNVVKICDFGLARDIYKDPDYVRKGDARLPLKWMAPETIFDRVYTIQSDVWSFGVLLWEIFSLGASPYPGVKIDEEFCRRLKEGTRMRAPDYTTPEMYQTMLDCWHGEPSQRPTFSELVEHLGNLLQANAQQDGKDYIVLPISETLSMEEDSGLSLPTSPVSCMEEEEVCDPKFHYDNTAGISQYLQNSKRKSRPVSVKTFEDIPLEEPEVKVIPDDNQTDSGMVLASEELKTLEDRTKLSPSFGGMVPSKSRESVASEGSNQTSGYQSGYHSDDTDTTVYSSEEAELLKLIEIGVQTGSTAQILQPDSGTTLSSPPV
parameterMeasured: IC50

Entry CN(C)C(=O)Nc1ccc(-c2ccc(NC(=O)C3CC3)nc2)cc1 — recorded IC50 = > 1000 nM

Entry O=C(Nc1ccc(-c2ccc(NC(=O)C3CC3)nc2)cc1)Nc1ccc(C(F)(F)F)c(Cl)c1 — recorded IC50 = 5.52 nM

Entry CN(C)CCNC(=O)Nc1ccc(-c2ccc(NC(=O)C3CC3)nc2)cc1 — recorded IC50 = > 1000 nM

* * *

target: TIE-2 (Homo sapiens); experiment: ADP-Glo kinase inhibition assay, TIE-2; format: biochemical; settings: Table 2, ATP 50 μM, read-out: TIE-2 inhibitory activity (IC50)
parameterMeasured: pIC50
Worth noting: pIC50 values are minus log10 of concentrations stated in mol/L.

# smilesText, system, pIC50
rows = [
    ("O=C(Nc1ccc(-c2cccc(NC(=O)C3CC3)n2)cc1)Nc1cccc(Cl)c1", "TIE-2 (Homo sapiens)", 8.31),
]

Next compound, pIC50 to be filled in.
Entry Cc1ccc(NC(=O)Nc2ccc(-c3cccc(NC(=O)C4CC4)n3)cc2)cc1Cl — recorded pIC50 = 6.57

* * *

target: TIE-2 (Homo sapiens, UniProt Q02763); assay: ADP-Glo kinase inhibition assay, TIE-2; type: biochemical; conditions: Table 2, ATP 50 μM, read-out: TIE-2 inhibitory activity (IC50)
Sequence (Q02763 23-1124): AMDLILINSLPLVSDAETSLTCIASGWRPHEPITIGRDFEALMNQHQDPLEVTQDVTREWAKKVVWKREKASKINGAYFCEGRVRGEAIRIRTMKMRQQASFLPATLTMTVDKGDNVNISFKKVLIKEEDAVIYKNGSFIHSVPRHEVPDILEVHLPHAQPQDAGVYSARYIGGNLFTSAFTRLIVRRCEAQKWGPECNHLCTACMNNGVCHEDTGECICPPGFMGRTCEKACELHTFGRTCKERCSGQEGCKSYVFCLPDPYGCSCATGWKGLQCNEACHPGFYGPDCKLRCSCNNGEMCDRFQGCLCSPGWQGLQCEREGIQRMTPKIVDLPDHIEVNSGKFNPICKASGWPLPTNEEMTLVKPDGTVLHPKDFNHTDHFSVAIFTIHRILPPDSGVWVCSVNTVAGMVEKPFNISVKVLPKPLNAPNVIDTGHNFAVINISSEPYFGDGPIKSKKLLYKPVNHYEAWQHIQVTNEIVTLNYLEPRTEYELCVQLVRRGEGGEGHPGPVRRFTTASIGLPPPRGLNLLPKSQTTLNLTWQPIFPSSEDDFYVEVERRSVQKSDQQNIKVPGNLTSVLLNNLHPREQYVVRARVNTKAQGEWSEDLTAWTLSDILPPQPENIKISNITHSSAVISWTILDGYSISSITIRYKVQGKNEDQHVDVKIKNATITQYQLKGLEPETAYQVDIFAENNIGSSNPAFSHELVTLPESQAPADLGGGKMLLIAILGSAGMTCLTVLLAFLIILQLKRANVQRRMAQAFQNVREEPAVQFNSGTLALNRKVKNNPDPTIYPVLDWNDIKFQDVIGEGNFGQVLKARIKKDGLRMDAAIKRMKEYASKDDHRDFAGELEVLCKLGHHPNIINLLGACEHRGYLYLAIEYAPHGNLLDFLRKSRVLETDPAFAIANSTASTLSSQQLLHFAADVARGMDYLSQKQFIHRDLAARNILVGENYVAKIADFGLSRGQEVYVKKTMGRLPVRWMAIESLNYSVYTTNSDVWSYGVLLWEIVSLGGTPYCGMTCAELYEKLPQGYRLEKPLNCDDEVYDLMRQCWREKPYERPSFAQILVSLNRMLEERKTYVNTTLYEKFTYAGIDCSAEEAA
pIC50: −log10 of the molar value.
parameterMeasured: pIC50

# smilesText, system, pIC50
rows = [
    ("O=C(Nc1ccc(-c2cccc(NC(=O)C3CC3)n2)cc1)Nc1ccc(F)cc1F", "TIE-2 (Homo sapiens, UniProt Q02763)", "< 6.00"),
]

Entry O=C(Nc1ccc(-c2cccc(NC(=O)C3CC3)n2)cc1)Nc1cccc(F)c1 — recorded pIC50 = < 6.00

Entry O=C(Nc1ccc(-c2cccc(NC(=O)C3CC3)n2)cc1)Nc1ccccc1F — recorded pIC50 = < 6.00

* * *

target: VEGFR-2 (Homo sapiens); assay: ADP-Glo kinase inhibition assay, VEGFR-2; assay type: biochemical; settings: Table 1, ATP 50 μM, read-out: VEGFR-2 inhibitory activity (IC50)
pIC50: −log10 of the molar value.
parameterMeasured: pIC50

# smilesText, pIC50
records = [
    ("CC(C)(C)NC(=O)Nc1ccc(-c2ccc(NC(=O)C3CC3)nc2)cc1", "< 6.00"),
    ("O=C(Nc1ccc(OC(F)(F)F)cc1)Nc1ccc(-c2ccc(NC(=O)C3CC3)nc2)cc1", "< 6.00"),
]

Next compound, pIC50 to be filled in.
Entry O=C(Nc1ccc(-c2ccc(NC(=O)C3CC3)nc2)cc1)Nc1ccccc1F — recorded pIC50 = < 6.00
